In this section we review reported pIC50 values for a set of compounds.
- Test system: P. falciparum CQ-sensitive strain 3D7
- experimental_details: In vitro antiplasmodial activity, SYBR Green I fluorescence-based method, 3D7 strain
- Assay type: cell-based, Plasmodium falciparum
- setup_conditions: Plasmodium falciparum, 3D7, 48 h, chloroquine-sensitive strain 3D7, 48 h incubation; read-out: P. falciparum strains IC50 values, 3D7
# log scale: pIC50 equals minus log10 of the concentration in mol/L

// worked examples, pIC50 included
OC(c1cc(C(F)(F)F)nc2c(C(F)(F)F)cccc12)C1CCCCN1 (stereo not shown) [Mefloquine, reference compound]	7.10
COc1ccc2c(c1)nc(-c1ccc(CNCCCN3CCN(CCCNCc4ccc(-c5nc6cc(OC)ccc6n6cccc56)cc4)CC3)cc1)c1cccn12 [1e]	5.58
COc1ccc2nc(-c3cccc(CNCCCN4CCN(CCCNCc5cccc(-c6nc7ccc(OC)cc7n7cccc67)c5)CC4)c3)c3cccn3c2c1 [1p]	7.40
CN(CCCNCc1cccc(-c2nc3ccccc3n3cccc23)c1)CCCNCc1cccc(-c2nc3ccccc3n3cccc23)c1 [1m]	5.97
CN(CCCNCc1ccc(-c2nc3ccccc3n3cccc23)cc1)CCCNCc1ccc(-c2nc3ccccc3n3cccc23)cc1 [1b]	5.92

Report measured pIC50; entry is COc1ccc2c(c1)nc(-c1ccc(CNCCCN(C)CCCNCc3ccc(-c4nc5cc(OC)ccc5n5cccc45)cc3)cc1)c1cccn12 [1d]
5.38

Return reported pIC50. Input compound: COc1ccc2nc(-c3ccc(CNCCCN4CCN(CCCNCc5ccc(-c6nc7ccc(OC)cc7n7cccc67)cc5)CC4)cc3)c3cccn3c2c1 [1g]
5.65

Read off the recorded pIC50 for CCOc1ccn2c1c(-c1ccc(CNCCCN3CCN(CCCNCc4ccc(-c5nc6ccccc6n6ccc(OCC)c56)cc4)CC3)cc1)nc1ccccc12 [1k]
6.72

Identify measured pIC50 associated with COc1ccc2c(c1)nc(-c1ccc(CNCCCN(CCCNCc3ccc(-c4nc5cc(OC)ccc5n5cccc45)cc3)CCCNCc3ccc(-c4nc5cc(OC)ccc5n5cccc45)cc3)cc1)c1cccn12 [1s]
6.70

Specify reported pIC50 for the compound shown: c1ccc2c(c1)nc(-c1ccc(CNCCCN3CCN(CCCNCc4ccc(-c5nc6ccccc6n6cccc56)cc4)CC3)cc1)c1cccn12 [1c]
6.10

Give the reported value of pIC50 for this record: c1ccc2c(c1)nc(-c1ccc(CNCCCNCCCNCc3ccc(-c4nc5ccccc5n5cccc45)cc3)cc1)c1cccn12 [1a]
5.47

Please report pIC50 for the following compound: c1ccc2c(c1)cc1c(-c3ccc(CNCCCN4CCN(CCCNCc5ccc(-c6nc7ccccc7n7c6cc6ccccc67)cc5)CC4)cc3)nc3ccccc3n12 [1q]
6.00
